experiment: Luminescence activity of KAZ mutants (pCold II, E. coli) in supernatant and precipitate of crude enzyme solution; type: biochemical; conditions: Table 3; pCold II, E. coli BL21; 5 μL precipitate; 0.5 μg coelenterazine; 60 seconds
attribute.measured: Relative Luminescence Activity (Imax) Precipitate
Give bare numbers.

# molecule, observed.result
data = [
    ("KAZ-Y138I: KAZ with single amino acid substitution Y138I, SEQ ID NO: 8 (protein) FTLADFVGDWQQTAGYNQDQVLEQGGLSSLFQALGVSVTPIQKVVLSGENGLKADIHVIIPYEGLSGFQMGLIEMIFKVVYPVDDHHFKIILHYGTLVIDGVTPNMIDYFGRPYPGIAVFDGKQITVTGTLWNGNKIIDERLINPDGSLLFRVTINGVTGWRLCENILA", 1.4),
]

List the reported Relative Luminescence Activity (Imax) Precipitate of each molecule below.
1. KAZ: wild 19 kDa catalytic protein of Oplophorus luciferase (19kOLase), amino acid sequence SEQ ID NO: 2 (protein, listed as Oplophorus gracilirostris) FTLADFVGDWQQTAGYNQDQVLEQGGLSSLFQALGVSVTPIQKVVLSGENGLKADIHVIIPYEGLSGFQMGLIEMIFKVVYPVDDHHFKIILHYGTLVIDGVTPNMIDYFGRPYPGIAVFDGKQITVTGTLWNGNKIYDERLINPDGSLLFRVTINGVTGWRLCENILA
2. KAZ-M75K: KAZ with single amino acid substitution M75K (protein) FTLADFVGDWQQTAGYNQDQVLEQGGLSSLFQALGVSVTPIQKVVLSGENGLKADIHVIIPYEGLSGFQMGLIEKIFKVVYPVDDHHFKIILHYGTLVIDGVTPNMIDYFGRPYPGIAVFDGKQITVTGTLWNGNKIYDERLINPDGSLLFRVTINGVTGWRLCENILA

[0.1, 0.4]
